Where do these numbers come from? They come from patent US8822509B2.

Target: μ-opioid receptors (MOP receptors) (Mus musculus)
Construct: expressed in transfected cells; host or cells: HEK293
Sequence (P42866 whole entry): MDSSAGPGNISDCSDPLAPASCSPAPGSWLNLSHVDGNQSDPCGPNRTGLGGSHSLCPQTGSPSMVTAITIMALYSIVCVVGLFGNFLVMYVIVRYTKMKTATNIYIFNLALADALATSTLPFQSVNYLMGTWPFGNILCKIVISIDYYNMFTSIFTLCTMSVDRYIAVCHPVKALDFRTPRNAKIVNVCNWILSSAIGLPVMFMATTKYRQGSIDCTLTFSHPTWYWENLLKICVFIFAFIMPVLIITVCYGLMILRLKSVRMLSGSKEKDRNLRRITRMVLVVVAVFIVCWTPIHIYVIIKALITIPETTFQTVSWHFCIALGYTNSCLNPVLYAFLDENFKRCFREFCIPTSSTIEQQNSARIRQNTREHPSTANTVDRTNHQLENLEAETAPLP
Assay type: cell-based
Settings: Conc 10^−9 M
Protocol: Briefly, HEK-MOP cells were pre-incubated with 2% (2-hydroxypropyl)-β-cyclodextrin (βCD) for 1 h at 37° C. to deplete cholesterol from caveloae in the cell membrane. Cells were washed with DMEM and then utilized in the forskolin-stimulated cAMP assay as described above. […] Cells were washed with DMEM and then utilized in the forskolin-stimulated cAMP assay as described above.
Some molecules, each annotated with its measured % of forskolin stimulated cyclic AMP response.
Numeric answer only, unit % assumed.

Example entries begin here.
O=C1CCc2c1no[n+]2[O-] : 125.4
O=Cc1c(-c2ccccc2)no[n+]1[O-] : 107.4
Cc1c(-c2ccc(F)cc2)no[n+]1[O-] : 64.0
Cc1c(-c2ccccc2)no[n+]1[O-] : 94.9
Cc1c(C(=O)O)no[n+]1[O-] : 88.2

Q: What measured % of forskolin stimulated cyclic AMP response is associated with [O-][n+]1onc(-c2ccccc2)c1-c1ccccc1 on μ-opioid receptors (MOP receptors) (Mus musculus)?
Result: 57.7

Q: // lookup % of forskolin stimulated cyclic AMP response | system=μ-opioid receptors (MOP receptors) (Mus musculus) | key= O=C(c1no[n+]([O-])c1-c1ccccc1)C(F)(F)F
Result: 65.2

Q: Give μ-opioid receptors (MOP receptors) (Mus musculus) % of forskolin stimulated cyclic AMP response for CC(=O)c1c(-c2ccccc2)no[n+]1[O-]
Result: 56.4

Q: Give the reported % of forskolin stimulated cyclic AMP response for [O-][n+]1onc(-c2ccc(F)cc2)c1-c1ccc(F)cc1 (system: μ-opioid receptors (MOP receptors) (Mus musculus)).
Result: 46.5

Q: Identify the measured % of forskolin stimulated cyclic AMP response of COc1ccc(-c2no[n+]([O-])c2C)cc1 for μ-opioid receptors (MOP receptors) (Mus musculus).
Result: 132.4

Q: Please tell me: % of forskolin stimulated cyclic AMP response of CCc1c(C(=O)O)no[n+]1[O-] , system μ-opioid receptors (MOP receptors) (Mus musculus)?
Result: 107.0
